Values from the supplement of paper PMC7877785

- experiment summary: self-splicing fitness, log relative to wild type (ln ratio); higher = more splicing; Tetrahymena group I intron in knt gene, E. coli kanamycin selection, DiMSum; sequences stand for … in CUCUCU…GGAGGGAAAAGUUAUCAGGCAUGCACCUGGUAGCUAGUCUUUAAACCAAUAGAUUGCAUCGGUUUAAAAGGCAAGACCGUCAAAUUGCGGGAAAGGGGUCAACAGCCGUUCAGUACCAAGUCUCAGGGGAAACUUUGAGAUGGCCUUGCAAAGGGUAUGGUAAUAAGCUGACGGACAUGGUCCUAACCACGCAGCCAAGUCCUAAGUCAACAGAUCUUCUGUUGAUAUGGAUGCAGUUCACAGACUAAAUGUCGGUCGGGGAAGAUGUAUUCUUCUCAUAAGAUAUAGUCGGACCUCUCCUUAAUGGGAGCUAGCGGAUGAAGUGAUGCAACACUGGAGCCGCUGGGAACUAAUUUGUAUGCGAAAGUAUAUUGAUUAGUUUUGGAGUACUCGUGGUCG;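 further: selection with 25 µg/mL kanamycin versus none on LB agar overnight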
- assay context: 37 °C
Values of self-splicing fitness (ln) greater than or equal to -1 map to Condition met; values below map to Condition not met.

residue codes	label value
GUCUAGCAAUAUUACGAUAU	Condition met
CUCCAGCAAUAUUACGUGCG	Condition not met
UGUAAGCAAUAUUACGACGA	Condition met
UUGUAGCAAUAUUACGAGUU	Condition not met
CUAUAGCAAUAUUACGACCG	Condition met
ACUUAGCAAUAUUACGCGUU	Condition not met
ACGUAGCAAUAUUACGGAAA	Condition not met
GAUAAGCAAUAUUACGCCCC	Condition not met
ACCCAGCAAUAUUACGCGAG	Condition met
UUCAAGCAAUAUUACGUAUC	Condition not met
UACAAGCAAUAUUACGUACG	Condition not met
UCGGAGCAAUAUUACGAAGA	Condition not met
UCACAGCAAUAUUACGUUAC	Condition not met
UUCUAGCAAUAUUACGAUGC	Condition not met
CUCUAGCAAUAUUACGAUUU	Condition not met
ACCUAGCAAUAUUACGCCGC	Condition not met
AGUGAGCAAUAUUACGUGAC	Condition not met
GUCCAGCAAUAUUACGGUUA	Condition met
UCGAAGCAAUAUUACGUGAG	Condition met
GCAUAGCAAUAUUACGCAAU	Condition not met
CAGAAGCAAUAUUACGUGGG	Condition not met
AGCAAGCAAUAUUACGCUUG	Condition not met
UUUCAGCAAUAUUACGUAUG	Condition met
CAACAGCAAUAUUACGCGUA	Condition not met
AUCUAGCAAUAUUACGGCCG	Condition met
AACGAGCAAUAUUACGUGUG	Condition not met
GUCAAGCAAUAUUACGGUUC	Condition met
GAAUAGCAAUAUUACGCCGU	Condition met
CGUUAGCAAUAUUACGGUUC	Condition not met
CUCAAGCAAUAUUACGGUUG	Condition not met
GAGCAGCAAUAUUACGCCGU	Condition met
UAUAAGCAAUAUUACGUUAC	Condition not met
CUCAAGCAAUAUUACGUUGG	Condition not met
AGAUAGCAAUAUUACGGGAA	Condition not met
GAACAGCAAUAUUACGCAUA	Condition met
UAGAAGCAAUAUUACGUAGA	Condition not met
CGCAAGCAAUAUUACGUCUG	Condition met
GUGCAGCAAUAUUACGUCAA	Condition met
AAAGAGCAAUAUUACGGGUU	Condition not met
CGAGAGCAAUAUUACGGUAG	Condition not met
AGACAGCAAUAUUACGCGGU	Condition not met
AAAAAGCAAUAUUACGCAGU	Condition not met
UUGGAGCAAUAUUACGGACG	Condition not met
GCAGAGCAAUAUUACGGCAG	Condition not met
AUUUAGCAAUAUUACGUCAG	Condition met
CAUAAGCAAUAUUACGUGGC	Condition not met
UAGAAGCAAUAUUACGAAGG	Condition not met
AGAUAGCAAUAUUACGUUUU	Condition not met
CAUCAGCAAUAUUACGACGU	Condition met
UUCUAGCAAUAUUACGCUCU	Condition not met
AUUGAGCAAUAUUACGUUAU	Condition not met
GCCAAGCAAUAUUACGUGGG	Condition not met
ACGCAGCAAUAUUACGAUUA	Condition met
AGCUAGCAAUAUUACGGUGU	Condition not met
CCACAGCAAUAUUACGUCAU	Condition not met
GCUCAGCAAUAUUACGGAUC	Condition met

###

- experiment summary: self-splicing fitness, log relative to wild type (ln ratio); higher = more splicing; Tetrahymena group I intron in knt gene, E. coli kanamycin selection, DiMSum; sequences stand for … in CUCUCU…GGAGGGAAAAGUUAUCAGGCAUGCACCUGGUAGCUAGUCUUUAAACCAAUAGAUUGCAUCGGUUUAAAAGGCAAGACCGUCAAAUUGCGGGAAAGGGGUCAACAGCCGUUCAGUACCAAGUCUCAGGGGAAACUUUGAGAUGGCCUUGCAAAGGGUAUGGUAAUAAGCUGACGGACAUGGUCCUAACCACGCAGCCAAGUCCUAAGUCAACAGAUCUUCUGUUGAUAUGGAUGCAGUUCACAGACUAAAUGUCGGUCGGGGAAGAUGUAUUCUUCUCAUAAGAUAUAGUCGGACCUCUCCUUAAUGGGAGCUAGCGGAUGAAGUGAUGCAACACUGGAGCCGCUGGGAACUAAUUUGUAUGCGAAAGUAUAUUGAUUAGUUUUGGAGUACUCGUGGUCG
- assay context: 37 °C
experimental endpoint: self-splicing fitness (ln)

residue codes	result value
GGGGAGCAAUAUUACGUAAG	-1.01
AAGGAGCAAUAUUACGUAGU	-2.03
GCGAAGCAAUAUUACGUGAU	-0.973

###

- experiment summary: self-splicing fitness, log relative to wild type (ln ratio); higher = more splicing; Tetrahymena group I intron in knt gene, E. coli kanamycin selection, DiMSum; sequences stand for … in CUCUCU…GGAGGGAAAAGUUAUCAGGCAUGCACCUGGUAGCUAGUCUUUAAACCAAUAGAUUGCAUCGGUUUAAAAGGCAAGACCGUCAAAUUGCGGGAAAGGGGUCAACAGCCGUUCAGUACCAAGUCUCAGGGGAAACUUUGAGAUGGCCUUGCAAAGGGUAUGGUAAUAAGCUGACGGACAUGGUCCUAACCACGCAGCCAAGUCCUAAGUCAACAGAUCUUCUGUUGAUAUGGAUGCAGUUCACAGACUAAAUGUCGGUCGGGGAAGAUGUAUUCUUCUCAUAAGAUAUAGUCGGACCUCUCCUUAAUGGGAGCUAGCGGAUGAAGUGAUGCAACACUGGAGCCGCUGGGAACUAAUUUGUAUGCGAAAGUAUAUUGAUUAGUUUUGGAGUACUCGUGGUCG
- assay context: 37 °C
Note to self: values exactly at -0.9 are fulfilled. So self-splicing fitness (ln) at or above -0.9 is fulfilled, below is not fulfilled.

residue codes	label value
AGAUAGCAAUAUUACGCCUA	not fulfilled
GGCUAGCAAUAUUACGAAAG	not fulfilled
UCGUAGCAAUAUUACGGACG	not fulfilled
ACCCAGCAAUAUUACGGGCC	not fulfilled
UGCAAGCAAUAUUACGGGGC	not fulfilled
CAUUAGCAAUAUUACGCCGA	not fulfilled
GCAGAGCAAUAUUACGACCU	not fulfilled
AUAAAGCAAUAUUACGGAGA	not fulfilled
CUAUAGCAAUAUUACGGAGA	not fulfilled
AGACAGCAAUAUUACGCUAC	not fulfilled
AGAUAGCAAUAUUACGCCAA	not fulfilled
GGAAAGCAAUAUUACGAUAA	fulfilled
UUGAAGCAAUAUUACGUCGU	fulfilled
GUUCAGCAAUAUUACGAGUA	fulfilled
UUGCAGCAAUAUUACGUGAG	fulfilled
GUUAAGCAAUAUUACGACCU	fulfilled
ACCCAGCAAUAUUACGGUGA	fulfilled
AGCCAGCAAUAUUACGGGAG	not fulfilled
AUAAAGCAAUAUUACGAGGG	not fulfilled

###

- experiment summary: self-splicing fitness, log relative to wild type (ln ratio); higher = more splicing; Tetrahymena group I intron in knt gene, E. coli kanamycin selection, DiMSum; sequences stand for … in CUCUCU…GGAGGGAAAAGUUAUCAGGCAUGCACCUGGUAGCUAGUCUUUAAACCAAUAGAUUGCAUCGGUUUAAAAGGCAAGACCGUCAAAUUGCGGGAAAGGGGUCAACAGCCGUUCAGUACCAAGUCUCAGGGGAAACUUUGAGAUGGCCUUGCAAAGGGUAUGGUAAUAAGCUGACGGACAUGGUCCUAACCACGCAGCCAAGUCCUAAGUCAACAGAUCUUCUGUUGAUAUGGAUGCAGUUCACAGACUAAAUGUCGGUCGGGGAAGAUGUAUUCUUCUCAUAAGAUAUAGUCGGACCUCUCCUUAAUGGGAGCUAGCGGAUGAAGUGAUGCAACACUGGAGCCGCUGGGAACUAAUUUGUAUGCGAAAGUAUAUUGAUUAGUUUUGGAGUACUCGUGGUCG
- assay context: 37 °C
Below, each entry is listed with its recorded self-splicing fitness (ln).
experimental endpoint: self-splicing fitness (ln)

residue codes	experimental endpoint	result value
UGAAAGCAAUAUUACGAAAU	self-splicing fitness (ln)	-1.95
ACCCAGCAAUAUUACGUUGC	self-splicing fitness (ln)	-0.989
UAUCAGCAAUAUUACGCACA	self-splicing fitness (ln)	0.32
ACCCAGCAAUAUUACGCCUA	self-splicing fitness (ln)	-0.478
CCAUAGCAAUAUUACGUCCU	self-splicing fitness (ln)	-2.64
GACAAGCAAUAUUACGACCU	self-splicing fitness (ln)	-0.133
CUUUAGCAAUAUUACGCUGC	self-splicing fitness (ln)	0.317
GCUGAGCAAUAUUACGGUAA	self-splicing fitness (ln)	-2.44
UAAAAGCAAUAUUACGGGUC	self-splicing fitness (ln)	-2.82
CGUGAGCAAUAUUACGUGCA	self-splicing fitness (ln)	0.0971
ACUGAGCAAUAUUACGAAGG	self-splicing fitness (ln)	-2.02
UACGAGCAAUAUUACGAGUG	self-splicing fitness (ln)	-1.74
UAAAAGCAAUAUUACGUCCU	self-splicing fitness (ln)	0.00684
CGCUAGCAAUAUUACGUCCG	self-splicing fitness (ln)	-0.4
UGUUAGCAAUAUUACGUCCG	self-splicing fitness (ln)	0.113
AAUAAGCAAUAUUACGACUG	self-splicing fitness (ln)	-1.18
UACCAGCAAUAUUACGUUCC	self-splicing fitness (ln)	-1.77
AGCAAGCAAUAUUACGUAAU	self-splicing fitness (ln)	-1.27
UCGUAGCAAUAUUACGUGAA	self-splicing fitness (ln)	-1.8
GACCAGCAAUAUUACGGUUC	self-splicing fitness (ln)	-2.73
GGCGAGCAAUAUUACGCUGC	self-splicing fitness (ln)	-0.462
CACGAGCAAUAUUACGUCGG	self-splicing fitness (ln)	-2.16
UGCCAGCAAUAUUACGAAGA	self-splicing fitness (ln)	-1.33
CUGGAGCAAUAUUACGCUUU	self-splicing fitness (ln)	-3.22
GCGUAGCAAUAUUACGGGGA	self-splicing fitness (ln)	-2.89
GGCGAGCAAUAUUACGUGGU	self-splicing fitness (ln)	-1.77
